- test: amyloid nucleation score (Sup35N fusion, yeast selection) (log enrichment); library NNK2; higher = more nucleation; inactive = no reads after selection;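 further: zero at mode of non-aggregating sequences after 7 days selection at 30°C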
reported-metric: amyloid nucleation score
I only need the number, thanks.

Can you look up the measured amyloid nucleation score of RIMTFFVMPDSRRRVDHNQV for me? 0.074

Which amyloid nucleation score is reported for this substance? CNKESFSMI -0.791

// amyloid nucleation score lookup, key: KSFGVDYFFCVKLTSCGIQC 3.25

Fill blank: measured amyloid nucleation score of the substance QTCCTSNEQEFVALA is ____. 0.414

// query amyloid nucleation score value for entry FHLLVVNFDTSLPLRQWKLE 0.059

# get_value(readout='amyloid nucleation score', item= HGAVRSLSGGHIDRELVCD ) 0.566

What value of amyloid nucleation score has been reported for the following substance? IWGLIAYLDSFNNFALDRRK -1.03

Reported amyloid nucleation score, substance MRHRCGHKKVSGV : ____ 1.27

Bench note: what amyloid nucleation score did IDCWCSVSWATAL show? -0.4

// query amyloid nucleation score value for entry SSSFHKYRRALWKRKRTWVV 5.63

# get_value(readout='amyloid nucleation score', item= CGRLGLHYQCMLCCGIGSIL ) 2.23

Reported amyloid nucleation score for FYVSAFMHIKVLYPVNNRLG : what is it? 3.62

So what's the measured amyloid nucleation score for this one? FSVCHVQDCSSAGRMYYLRL 3.98

Given the entry ILFWFRT , report its measured amyloid nucleation score. 4.9
